Target: Su(dx) WW4 (Drosophila melanogaster, UniProt Q9Y0H4)
Sequence (Q9Y0H4 515-557): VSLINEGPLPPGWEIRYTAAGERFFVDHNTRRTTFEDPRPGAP
Test: ITC binding of peptides to Su
No end group written: not given here.
Below is a list of entries, each paired with its recorded Kd value.
Please give a number only; it is taken to be in µM.

1) AKQPPSYEDC [N2] ... 45

Now for the sequence whose Kd we want.
[in] Fill in the blank: the reported Kd of AKQPPSYEDCIK [N1] is ____.
[out] 45
